Source of measurements: patent US20130336893A1

Molecular target: human glucagon receptor (human, UniProt P47871 26-477)
Sequence (P47871 26-477): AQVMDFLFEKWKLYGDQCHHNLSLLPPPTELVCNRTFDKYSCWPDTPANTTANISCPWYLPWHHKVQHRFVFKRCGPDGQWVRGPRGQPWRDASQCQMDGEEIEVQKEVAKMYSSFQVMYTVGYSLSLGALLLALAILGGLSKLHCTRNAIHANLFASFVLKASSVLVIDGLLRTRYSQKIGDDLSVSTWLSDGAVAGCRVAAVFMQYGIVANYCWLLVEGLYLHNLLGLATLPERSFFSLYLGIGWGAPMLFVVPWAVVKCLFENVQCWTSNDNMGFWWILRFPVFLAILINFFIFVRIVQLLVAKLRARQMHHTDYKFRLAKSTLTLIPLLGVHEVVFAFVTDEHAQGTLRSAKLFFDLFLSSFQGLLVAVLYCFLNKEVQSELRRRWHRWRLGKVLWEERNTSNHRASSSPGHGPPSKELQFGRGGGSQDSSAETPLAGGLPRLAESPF
Test: cell-based or functional assay
*1 amine or outer side, *2 acyl side, *3 side chain or, on linkers, in order; H or OH if unused. Where no end group is shown, it is not given here. Side-chain parts run from the residue outwards. [ ]: non-standard residue; d: D form. The star is where a group is joined. γGlu = O=C(O)[C@H](CCC(=O)[*:2])N[*:1]; Stearoyl = CCCCCCCCCCCCCCCCCC(=O)*; Cysteamide = C(CS[*:3])N[*:1]; Propionyl = CCC(=O)*
Value Type: EC50 hGlucagonR (cAMP formation)
The reply should consist of the numeric value with the unit placed after it.

So what does the record say about EC50 hGlucagonR (cAMP formation) for HSQGTFTSDLSKQMDSRRAQDFIEWLKNGGPSSGAPPPS-Cysteamide [SEQ ID NO: (8)] ? 35.1 pM

Same question for HAQGTFTSDLSKQMDSRRAQDFIEWLKNGGPSSGAPPPS-NH2 [SEQ ID NO: (39)] please. 683 pM

Likewise for HSQGTFTSDLSKQMDSRRAQDFIEWLKNGGPSSGAPPPS-NH2 [SEQ ID NO: (9)] ? 26.4 pM

// query: H[dA]QGTFTSDLSKQMDSRRAQDFIEWLKNGGPSSGAPPPS-NH2 [SEQ ID NO: (40)] 1180 pM

Now the binder H[dS]QGTFTSDLSKQMESRRAQDFIEWLKSGGPSSGAPPPSK(6‑((4,4-diphenyl-cyclohexyloxy)-hydroxy-phosphoryloxy)‑hexanoyl)-NH2 [SEQ ID NO: (107)] 5160 pM

Request: HSQGTFTSDLSKQMEERRAKDFIEWLKNGGPSSGAPPPS-NH2 [SEQ ID NO: (16)] 2130 pM

Similarly, HSQGTFTSDLSKQMDSRRAQDFIEWLKNGGPSSGAPPPS-{NH‑(CH2)5‑OH} [SEQ ID NO: (50)] ? 22.5 pM

Try this binder too: H[dS]QGTFTSDLSKQMESRRAQDFIEWLKSGGPSSGAPPPSK(Stearoyl)-NH2 [SEQ ID NO: (85)] 9 pM

Let us now turn to HSQGTFTSDLSKQMEERRAQDFIEWLKNGGPSSGAPPPS-NH2 [SEQ ID NO: (15)] 538 pM

Also H[dS]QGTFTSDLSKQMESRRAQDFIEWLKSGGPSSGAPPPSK([γGlu-Propionyl])-NH2 [SEQ ID NO: (106)] , if possible. 1320 pM

Would you mind doing HGEGTFTSDLSKQMDSRRAQDFIEWLKNGGPSSGAPPPS-NH2 [SEQ ID NO: (4)] as well? 565000 pM
